target: Adenine DNA glycosylase (Homo sapiens) (UniProt Q9UIF7); conditions: Compound Concentration 10.0 uM, Hit No;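 also: human MUTYH activity read as 594 nm fluorescence from cleavage and release of a quenched DNA duplex, coupled with APE1 for strand incision, lower signal meaning inhibition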
Sequence (Q9UIF7 whole entry): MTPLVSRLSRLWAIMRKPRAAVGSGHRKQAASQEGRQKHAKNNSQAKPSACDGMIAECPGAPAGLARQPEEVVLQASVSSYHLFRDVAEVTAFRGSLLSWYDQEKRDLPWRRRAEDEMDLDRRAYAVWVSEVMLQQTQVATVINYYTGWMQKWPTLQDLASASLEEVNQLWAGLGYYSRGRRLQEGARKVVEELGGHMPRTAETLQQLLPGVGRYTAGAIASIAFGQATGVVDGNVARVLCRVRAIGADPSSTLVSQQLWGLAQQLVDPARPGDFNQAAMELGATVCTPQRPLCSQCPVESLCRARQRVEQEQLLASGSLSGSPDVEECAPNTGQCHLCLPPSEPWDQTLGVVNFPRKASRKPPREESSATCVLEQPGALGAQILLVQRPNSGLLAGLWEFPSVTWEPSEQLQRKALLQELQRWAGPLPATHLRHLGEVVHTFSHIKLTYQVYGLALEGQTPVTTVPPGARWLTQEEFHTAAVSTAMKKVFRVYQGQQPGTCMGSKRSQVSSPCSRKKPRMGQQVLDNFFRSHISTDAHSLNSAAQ
Description: Inhibition of MUTYH by quantifying inhibition of MUTYH-mediated cleavage and dissociation of quenched duplex DNA oligonucleotides, measured as fluorescence at 594 nm. To generate a functional strand incision and increase turn-over this assay is coupled to APE1.
MEASURED METRIC: inhibition
Quote the value and follow it with the unit of measurement.

Task: State the recorded inhibition for this entry: Cc1cc(OCCCS(C)(=O)=O)cc(C)c1-c1cccc(COc2ccc3c(c2)OC[C@H]3CC(=O)O)c1
Output: 49.2%

Task: Follow-up item: Cc1cc(C)cc(C(=O)N(C)[C@H](Cc2ccc(-c3ccccc3)cc2)C(=O)N[C@@H](Cc2c[nH]c3ccccc23)C(=O)O)c1
Output: 76.9%

Task: Follow-up item: CNc1cc(Oc2cc(C(=O)Nc3cc(N4CCN(C)CC4)cc(C(F)(F)F)c3)ccc2C)ncn1
Output: -9.46%

Task: Follow-up item: COc1ccc(CCCN2CCC(COC(c3ccccc3)c3ccccc3)CC2)cc1
Output: 35%

Task: Follow-up item: c1ccc(C2CCN(c3cnc4c(N5CCOCC5)nccn34)CC2)cc1
Output: 15.4%

Task: Follow-up item: N#Cc1c(N)nc(SCc2csc(-c3ccc(Cl)cc3)n2)c(C#N)c1-c1ccc(OCCO)cc1
Output: 7.45%

Task: Follow-up item: CCCCCNC(=O)NS(=O)(=O)c1cc([N+](=O)[O-])ccc1NC1CCCCC1
Output: 30.5%

Task: Follow-up item: CN(C)C(=O)c1cc2cnc(Nc3ccc(N4CCNCC4)cn3)nc2n1C1CCCC1
Output: 16.4%

Task: Follow-up item: NC(=O)c1cc(-c2ccc(S(=O)(=O)[C@H]3CC[C@H](Nc4ccc(C(F)(F)F)cn4)CC3)cc2)ccn1
Output: 25.9%

Task: Follow-up item: O=C(Nc1ccc(C(O)(C(F)(F)F)C(F)(F)F)cc1)c1ccc(C(F)(F)F)cc1
Output: 3.77%

Task: Follow-up item: NC[C@H](O)c1ccc(O)c(O)c1
Output: -7.66%

Task: Follow-up item: O=C(O)[C@H]1O[C@H](OP(=O)(O)OP(=O)(O)OC[C@H]2O[C@@H](n3ccc(=O)[nH]c3=O)[C@H](O)[C@@H]2O)[C@H](O)[C@@H](O)[C@@H]1O
Output: 14.9%

Task: Follow-up item: CS(=O)(=O)NC[C@H]1CC[C@H](Nc2nc3c(s2)CCSc2ccccc2-3)CC1
Output: -5.74%

Task: Follow-up item: O=S(=O)(Nc1nnc2cc(OCC34CC5CC(CC(C5)C3)C4)c(C3CC3)cn12)C1CC1
Output: 84.7%

Task: Follow-up item: Fc1ccc(-c2c3cccc(C(F)(F)F)c3nn2Cc2ccc(F)cc2Cl)cc1
Output: 1.43%

Task: Follow-up item: CC1(C)CCC[C@]2(C)[C@@H](C=O)C(C=O)=CC[C@@H]12
Output: 80.5%

Task: Follow-up item: N/C(=N\C(=O)c1nc(Cl)c(N)nc1N)NCc1ccccc1
Output: 36.7%

Task: Follow-up item: COc1cc(/C=C/C(=O)NCCn2c(C)cc3ccccc32)cc(OC)c1OC
Output: 6.04%

Task: Follow-up item: Cc1cc(C)c(N)c(C#Cc2cccc(F)c2)n1
Output: 4.63%

====

molecular target: N-glycosylase/DNA lyase (Homo sapiens) (UniProt O15527); conditions: Compound Concentration 10.0 uM, Hit No;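 also: OGG1 cleavage of a quenched duplex DNA oligonucleotide, coupled to APE1 for strand incision, read as fluorescence at 594 nm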
Sequence (O15527 whole entry): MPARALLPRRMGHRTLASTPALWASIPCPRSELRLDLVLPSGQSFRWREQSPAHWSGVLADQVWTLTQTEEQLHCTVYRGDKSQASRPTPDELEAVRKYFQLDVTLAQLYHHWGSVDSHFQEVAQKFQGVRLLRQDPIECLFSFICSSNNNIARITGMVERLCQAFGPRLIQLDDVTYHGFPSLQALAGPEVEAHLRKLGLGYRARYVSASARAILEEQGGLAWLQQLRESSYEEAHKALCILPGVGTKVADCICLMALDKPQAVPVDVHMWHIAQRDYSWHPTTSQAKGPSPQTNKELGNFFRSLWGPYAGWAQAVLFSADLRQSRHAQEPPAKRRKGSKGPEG
Description: Inhibition of OGG1 by quantifying inhibition of OGG1-mediated cleavage and dissociation of quenched duplex DNA oligonucleotides, measured as fluorescence at 594 nm. To generate a functional strand incision and increase turn-over this assay is coupled to APE1.
MEASURED METRIC: inhibition (%)
Reply with just the number (in %).

Task: State the recorded inhibition for this entry: N#Cc1c(O)nc(SCc2cccc(F)c2F)nc1C1CC1
Output: 21.3

Task: Follow-up item: COc1ccc(CC(=O)NC(N/C(=N/C#N)Nc2cccc3ncccc23)C(C)(C)C)cc1OC (centres undefined)
Output: -8

Task: Follow-up item: NC(=O)c1ccc(CNC(=O)NC[C@H]2CN(Cc3ccc(Cl)c(Cl)c3)CCO2)cc1
Output: -7.25

Task: Follow-up item: Cc1cnc(-c2cc(N3CCN(C(=O)CCS(C)(=O)=O)CC3)ncc2Cl)c(C)c1
Output: -3.06

Task: Follow-up item: CN1C[C@H](C(=O)N[C@]2(C)O[C@@]3(O)[C@@H]4CCCN4C(=O)[C@H](Cc4ccccc4)N3C2=O)C[C@@H]2c3cccc4[nH]cc(c34)C[C@H]21
Output: -8.52

Task: Follow-up item: COc1ncc(F)cc1CNc1ccc(Cc2c[nH]c3ncc(C)cc23)c(F)n1
Output: 5.69

Task: Follow-up item: CCCn1c(=O)c2[nH]c(-c3cnn(Cc4cccc(C(F)(F)F)c4)c3)nc2n(CC)c1=O
Output: -1.7

Task: Follow-up item: COc1cccc(-c2c(C)n(Cc3c(F)cccc3C(F)(F)F)c(=O)n(C[C@H](NCCCC(=O)O)c3ccccc3)c2=O)c1F
Output: -3.13

Task: Follow-up item: Cn1cc(-c2ccc3occ(-c4ccccc4-c4ccccc4)c3n2)cn1
Output: -7.06

These measurements were taken from ChEMBL document CHEMBL5665443.
